assayed_target: human BRD4 first bromodomain (BDI_K57-E168) (Homo sapiens (Human), UniProt O60885)
measurement_protocol: TR-FRET bromodomain binding assay, BRD4 first bromodomain
experimental_readout: log10 Ki (log10 of the value in nM)

molecule	log10 Ki
CN(C)CCNC(=O)c1ccc(Oc2ccc(F)cc2F)c(-c2cn(C)c(=O)c3[nH]ccc23)c1 [Example 131]	1.99
Cn1cc(-c2ccccc2Oc2ccccc2)c2cc[nH]c2c1=O [Example 1]	2.13
Cn1cc(-c2cc(NC(=O)C(C)(C)C)ccc2Oc2ccc(F)cc2F)c2cc[nH]c2c1=O [Example 39]	2.05
Cn1cc(-c2cc(C(=O)NC3CCS(=O)(=O)C3)ccc2Oc2ccccc2)c2cc[nH]c2c1=O (centres unmarked) [Example 18]	1.01
Cn1cc(-c2cc(S(C)(=O)=O)ccc2OC2CCOC2)c2cc[nH]c2c1=O (centres unmarked) [Example 205]	0.79
Cn1cc(-c2cc(CC(=O)O)ccc2OCc2ccccc2)c2cc[nH]c2c1=O [Example 35]	2.82
Cn1cc(-c2cc(NS(C)(=O)=O)ccc2OC2CCCCC2)c2cc[nH]c2c1=O [Example 57]	-0.06
Cn1cc(-c2cc(S(=O)(=O)N3CCc4ccccc43)ccc2OCC2CC2)c2cc[nH]c2c1=O [Example 305]	2.51
C=C(C)c1cc2c(-c3cc(S(C)(=O)=O)ccc3Oc3ccc(F)cc3F)cn(C)c(=O)c2[nH]1 [Example 291]	1.52
Cn1cc(-c2cc(S(N)(=O)=O)cnc2OCC2CC2)c2cc[nH]c2c1=O [Example 207]	0.49
Cn1nc(-c2ccccc2Oc2ccccc2)c2cc[nH]c2c1=O [Example 82]	2.72
Cn1cc(-c2cc(S(C)(=O)=O)ccc2OCCC2CC2)c2cc[nH]c2c1=O [Example 219]	0.56
CCNC(=O)c1cc2c(-c3cc(S(C)(=O)=O)ccc3Oc3ccc(F)cc3F)cn(C)c(=O)c2[nH]1 [Example 253]	1.31
Cn1cc(-c2cc(S(C)(=O)=O)ccc2Oc2ccccc2)c2cc[nH]c2c1=O [Example 85]	0.81
Cn1cc(-c2cc(C(F)(F)F)ccc2Oc2ccc(F)cc2F)c2cc[nH]c2c1=O [Example 275]	2.72
Cn1cc(-c2cc(S(N)(=O)=O)ccc2NCC2CC2)c2cc[nH]c2c1=O [Example 238]	0.04
Cn1cc(-c2cc(S(C)(=O)=O)ccc2Oc2ccccc2F)c2cc[nH]c2c1=O [Example 149]	1.06

---

measurement_protocol: Rat liver microsome stability assay
Format: in vitro ADME
condition: rat liver microsomes (male Sprague-Dawley), 0.5 μM test compound, 0.25 mg/mL microsomal protein, pH 7.4, 37° C.; read-out: Stability in rat liver microsomes (t1/2 in minutes)
# half-life at 0.5 μM listing for each entry below

molecule	unit_text	qualifying_sign	half-life at 0.5 μM
CN(C)C1CCN(S(=O)(=O)c2ccc(OCC3CC3)c(-c3cn(C)c(=O)c4[nH]ccc34)c2)C1 (centres unmarked)	min	=	5
CCS(=O)(=O)c1ccc(OC2CCSCC2)c(-c2cn(C)c(=O)c3[nH]ccc23)c1	min	=	6
Cn1cc(-c2cc(S(C)(=O)=O)ccc2Oc2ccc(F)cc2F)c2cc(CO)[nH]c2c1=O	min	=	82
CNS(=O)(=O)c1cnc(Nc2ccccc2)c(-c2cn(C)c(=O)c3[nH]ccc23)c1	min	=	28
Cn1cc(-c2cc(S(=O)(=O)NCc3cccnc3)ccc2OCC2CC2)c2cc[nH]c2c1=O	min	=	3
Cn1cc(-c2cc(S(C)(=O)=O)ccc2OCC2CC2)c2cc[nH]c2c1=O	min	>	120
Cn1cc(-c2cc(S(C)(=O)=O)ccc2OCC2CCCC2)c2cc[nH]c2c1=O	min	=	9
CCNC(=O)Cc1ccc(OCc2ccccc2)c(-c2cn(C)c(=O)c3[nH]ccc23)c1	min	=	4
CCS(=O)(=O)c1ccc(Oc2cccc(CO)c2)c(-c2cn(C)c(=O)c3[nH]ccc23)c1	min	=	115
Cn1cc(-c2cc(C(=O)NCCN3CCCC3=O)ccc2Oc2ccc(F)cc2F)c2cc[nH]c2c1=O	min	=	16
CCS(=O)(=O)Nc1cc(-c2cn(C)c(=O)c3[nH]ccc23)c(Oc2ccc(F)cc2F)cc1C#N	min	>	120
Cn1cc(-c2cc(C(=O)NCC(F)F)ccc2Oc2ccccc2)c2cc[nH]c2c1=O	min	=	4
Cn1cc(-c2cc(S(C)(=O)=O)ccc2Oc2ccc(F)cc2F)c2cc(C(=O)NCC(F)(F)F)[nH]c2c1=O	min	>	120
Cn1cc(-c2cc(NS(=O)(=O)CCF)ccc2OC2CCOC2)c2cc[nH]c2c1=O (centres unmarked)	min	=	7
Cn1cc(-c2cc(S(N)(=O)=O)ccc2OCC2CC2)c2cc[nH]c2c1=O	min	>	120
CCS(=O)(=O)c1ccc(O[C@H]2CC[C@H](OC)CC2)c(-c2cn(C)c(=O)c3[nH]ccc23)c1	min	=	58
CC1CC1COc1ccc(S(C)(=O)=O)cc1-c1cn(C)c(=O)c2[nH]ccc12 (centres unmarked)	min	=	24
Cn1cc(-c2cc(C(=O)N3CCN(C(=O)N4CCCC4)CC3)ccc2Oc2ccc(F)cc2F)c2cc[nH]c2c1=O	min	=	24
Cn1cc(-c2cc(NS(C)(=O)=O)ccc2Oc2ccccc2)c2cc(C(N)=O)[nH]c2c1=O	min	=	2
Cn1cc(-c2cc(CC#N)ccc2OCC2CC2)c2cc[nH]c2c1=O	min	=	5
Cn1cc(-c2cc(CC(=O)O)ccc2OCc2ccccc2)c2cc[nH]c2c1=O	min	>	120
Cn1cc(-c2cc(S(C)(=O)=O)ccc2OC2CCOC2)c2cc[nH]c2c1=O (centres unmarked)	min	=	81
Cn1cc(-c2cc(S(C)(=O)=O)ccc2Oc2ccccc2CCO)c2cc[nH]c2c1=O	min	>	120
Cn1nc(-c2cc(NS(C)(=O)=O)ccc2Oc2ccc(F)cc2F)c2cc[nH]c2c1=O	min	=	107
CCS(=O)(=O)Nc1ccc(OC2CCOC2)c(-c2cn(C)c(=O)c3[nH]ccc23)c1 (centres unmarked)	min	>	120
COc1cc(Br)ccc1-c1cn(C)c(=O)c2[nH]ccc12	min	=	9
COC(=O)Cc1ccc(OCc2ccccc2)c(-c2cn(C)c(=O)c3[nH]ccc23)c1	min	=	2
CCN(CC)S(=O)(=O)c1cnc(OCC2CC2)c(-c2cn(C)c(=O)c3[nH]ccc23)c1	min	=	4
Cn1cc(-c2cc(S(C)(=O)=O)ccc2Oc2ccc(F)cc2F)c2cc(COc3ccccc3)[nH]c2c1=O	min	=	22
CCS(=O)(=O)N(Cc1ccccn1)c1ccc(Oc2ccc(F)cc2F)c(-c2cn(C)c(=O)c3[nH]ccc23)c1	min	=	5
CN(C)C(=O)c1cc2c(-c3cc(S(C)(=O)=O)ccc3Oc3ccc(F)cc3F)cn(C)c(=O)c2[nH]1	min	=	83
Cn1cc(-c2cc(S(C)(=O)=O)ccc2Oc2ccc(C#N)cc2)c2cc[nH]c2c1=O	min	>	120

---

measurement_protocol: Human liver microsome stability assay
Type: in vitro ADME
condition: both sexes, human, microsomes, pH 7.4
Everything with half-life at 0.5 μM lower than 40 min is 0; everything else, including exactly 40 min, is 1.

compound	class_assignment
Cn1cc(-c2cc(NS(C)(=O)=O)ccc2Oc2ccc(C#N)cc2)c2cc[nH]c2c1=O	1
Cn1cc(-c2cc(S(C)(=O)=O)ccc2OCCN2CCOCC2)c2cc[nH]c2c1=O	1
Cn1cc(-c2ccc(OCC3CC3)c(-c3cn(C)c(=O)c4[nH]ccc34)c2)cn1	0
Cn1cc(-c2cc(C(=O)NC3CCS(=O)(=O)C3)ccc2Oc2ccccc2)c2cc[nH]c2c1=O (centres unmarked)	0
Cn1cc(-c2cc(S(C)(=O)=O)ccc2OCCN2CCNC2=O)c2cc[nH]c2c1=O	1
CNS(=O)(=O)c1cnc(Nc2ccccc2)c(-c2cn(C)c(=O)c3[nH]ccc23)c1	1
Cn1cc(-c2cc(NS(=O)(=O)CCF)ccc2OC2CCOC2)c2cc[nH]c2c1=O (centres unmarked)	0
Cn1cc(-c2cc(NS(C)(=O)=O)ccc2Oc2ccc(F)c(F)c2)c2cc[nH]c2c1=O	0

---

measurement_protocol: Mouse liver microsome stability assay
Format: in vitro ADME
condition: male, CD1, mouse, microsomes, pH 7.4
Everything with half-life at 0.5 μM lower than 40 min is False; everything else, including exactly 40 min, is True.

compound	class_assignment
COC(=O)c1cc2c(-c3ccccc3Oc3ccccc3)cn(C)c(=O)c2[nH]1	False
Cn1cc(-c2cc(C(=O)NCc3ccccn3)ccc2Oc2ccc(F)cc2F)c2cc[nH]c2c1=O	False
CCS(=O)(=O)c1ccc(OCC2CC2)c(-c2cn(C)c(=O)c3[nH]ncc23)c1	True
Cn1cc(-c2cc(NS(C)(=O)=O)ccc2Oc2ccc(F)c(F)c2)c2cc[nH]c2c1=O	False
Cn1cc(-c2cc(S(C)(=O)=O)ccc2Nc2ccc(F)cc2)c2cc[nH]c2c1=O	True
CCS(=O)(=O)Nc1ccc(OCC(C)(C)C)c(-c2cn(C)c(=O)c3[nH]ccc23)c1	False
Cn1cc(-c2cc(C(=O)O)ccc2Oc2ccccc2)c2cc[nH]c2c1=O	True
CCS(=O)(=O)Nc1ccc(Oc2cncnc2)c(-c2cn(C)c(=O)c3[nH]ccc23)c1	True
CC(O)c1cc2c(-c3cc(S(C)(=O)=O)ccc3Oc3ccc(F)cc3F)cn(C)c(=O)c2[nH]1 (stereo not shown)	True
Cn1cc(-c2cc(-c3ccc(N)nc3)ccc2OCC2CC2)c2cc[nH]c2c1=O	False
Cn1cc(-c2cc(-c3ccc(F)nc3)ccc2OCC2CC2)c2cc[nH]c2c1=O	False
CCS(=O)(=O)c1ccc(OC2CCC(F)(F)CC2)c(-c2cn(C)c(=O)c3[nH]ccc23)c1	False
Cn1cc(-c2cc(C(=O)N3CCOCC3)ccc2Oc2ccc(F)cc2F)c2cc[nH]c2c1=O	False
Cn1cc(-c2cc(S(C)(=O)=O)ccc2Oc2cc(F)ccc2F)c2cc[nH]c2c1=O	False
CN(C)C(=O)Cc1ccc(OCc2ccccc2)c(-c2cn(C)c(=O)c3[nH]ccc23)c1	False
CNS(=O)(=O)c1cnc(Nc2ccccc2)c(-c2cn(C)c(=O)c3[nH]ccc23)c1	True
